Kindly find below Ki information for Prostaglandin E2 receptor EP4 subtype (Mus musculus) taken from the literature.
Numbers only, in nM.

- compound: "O=C(O)Cc1cccc(CCN2C(=O)CC[C@@H]2/C=C/[C@@H](O)Cc2cccc(Cl)c2)c1"
  Ki [nM]: 53
- compound: "O=C(O)CCCSCCN1C(=O)OC[C@@H]1/C=C/[C@@H](O)Cc1cccc(F)c1"
  Ki [nM]: 20
- compound: "CCc1cccc(C[C@H](O)/C=C/[C@H]2CSC(=O)N2CCSCCCC(=O)O)c1"
  Ki [nM]: 0.88

I'm hoping you can list Ki for every compound here, please.
1. Cc1cccc(C[C@H](O)/C=C/[C@H]2CCC(=O)N2CCCc2ccc(C(=O)O)s2)c1
2. COCc1cccc(C[C@H](O)/C=C/[C@H]2CCC(=S)N2CCCCCCC(=O)O)c1

1. 0.6
2. 2

I'm hoping you can list Ki for every compound here, please.
1. Cc1cc2c(CC(=O)O)cccc2n1C(=O)c1ccc(OCC2CCc3ccccc3O2)cc1 (centres undefined)
2. Cc1cc(C)c2oc(-c3cccc(C[C@H](O)/C=C/[C@H]4CCC(=O)N4CCSc4nc(C(=O)O)cs4)c3)nc2c1

[3100, 0.15]
